# system: C-C chemokine receptor type 5 (Homo sapiens, UniProt P51681)
# Sequence (P51681 whole entry): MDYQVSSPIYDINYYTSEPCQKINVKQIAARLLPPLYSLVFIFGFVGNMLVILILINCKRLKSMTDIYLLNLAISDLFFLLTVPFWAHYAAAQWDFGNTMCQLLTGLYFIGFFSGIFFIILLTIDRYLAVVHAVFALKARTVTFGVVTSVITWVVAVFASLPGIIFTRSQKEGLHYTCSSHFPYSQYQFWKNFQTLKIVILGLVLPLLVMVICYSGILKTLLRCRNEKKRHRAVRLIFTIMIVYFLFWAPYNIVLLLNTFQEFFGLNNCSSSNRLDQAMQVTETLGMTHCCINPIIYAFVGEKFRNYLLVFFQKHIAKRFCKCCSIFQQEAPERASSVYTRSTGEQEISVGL
# test_name: Rises in intracellular [Ca2+] levels by using [Ca2+] sensitive Fluo4 dye in C-C chemokine receptor type 5-transfected CHO cells.
# Type: functional, cell-based
measurement_type: pIC50
Keep it numeric: pIC50 is minus log10 of the concentration in mol/L.

# input Given the compound Cc1cccc(C)c1C(=O)N1CCC(C)(N2CCC(Nc3ccc4ccn(C)c4c3)CC2)CC1 , what is its reported pIC50?
# output 5.77

# input Ok, now Cc1ccccc1C(=O)N1CCC(C)(N2CCC(N(c3ccccc3)c3ccccc3)CC2)CC1
# output 7.17

# input Proceed to CC1(N2CCC(N(c3ccccc3)c3ccccc3)CC2)CCN(C(=O)C2CCCCC2)CC1
# output 6.24

# input Then Cc1nc(-c2ccncc2)nc(C)c1C(=O)N1CCC(C)(N2CCC(N(c3ccccc3)c3ccccc3)CC2)CC1 ?
# output 7.52

# input Now the compound Cc1cc[n+]([O-])c(C)c1C(=O)N1CCC(N2CCC(N(c3ccccc3)c3ccccc3)CC2)CC1
# output 6.90

# input Repeat with Cc1cccc(C)c1C(=O)N1CCC(C)(N2CCC(N(Cc3ccccc3)c3ccc(Br)cc3)CC2)CC1
# output 7.81

# input Lookup CC1(N2CCC(N(c3ccccc3)c3ccccc3)CC2)CCN(C(=O)c2c[nH]c3ccccc23)CC1
# output 6.55

# input Do the same for Cc1cc[n+]([O-])c(C)c1C(=O)N1CCC(C)(N2CCC(N(c3ccccc3)c3ccccc3)CC2)CC1 please
# output 7.80

# input Subsequent entry: Cc1cccc(C)c1C(=O)N1CCC(C)(N2CCC(Nc3ccc(C(F)(F)F)cc3)CC2)CC1
# output 7.56

# input Repeat with Cc1cccc(C)c1C(=O)N1CCC(C)(N2CCC(Nc3cccc4ccn(C)c34)CC2)CC1
# output 5.66
